Tested on: Escherichia coli
Method Description: Antibacterial activity was determined against Gram-negative Escherichia coli Vogel bacteria
Type: functional
Measurement Type: MIC (µg/mL)
Answer with a number only, understood to be in µg/mL.

                                   compound  measurement_type  measurement
0  CC1(CN)CCN(c2c(F)cc3c(=O)c(C(=O)O)cn(C4CC4)c3c2F)C1 (stereo not given)               MIC         0.05
1  NCC1(c2ccccc2)CCN(c2c(F)cc3c(=O)c(C(=O)O)cn(C4CC4)c3c2F)C1 (stereo not given)               MIC         0.05
2  CN(C)CC1(c2ccccc2)CCN(c2c(F)cc3c(=O)c(C(=O)O)cn(C4CC4)c3c2F)C1 (stereo not given)               MIC         0.05

Give the value of MIC reported for the following: NCC1CCN(c2c(F)cc3c(=O)c(C(=O)O)cn(C4CC4)c3c2F)C1 (stereo not given)
0.025

Give the value of MIC reported for the following: NC1CN(c2c(F)cc3c(=O)c(C(=O)O)cn(C4CC4)c3c2F)CC1c1ccccc1 (stereo not given)
0.1

----------
System: Escherichia coli
Method Description: Antibacterial activity was determined against Gram-negative Escherichia coli H560 bacteria
Assay type: functional
Measurement Type: MIC (mg/L)
Answer with a number only, understood to be in mg/L.

Here's what some known entries look like.
>>> df
                                   compound  measurement_type  units_text  measurement
0  NC1(c2ccccc2)CCN(c2c(F)cc3c(=O)c(C(=O)O)cn(C4CC4)c3c2F)C1 (centres undefined)               MIC        mg/L        0.013
1  CC1(N)CCN(c2c(F)cc3c(=O)c(C(=O)O)cn(C4CC4)c3c2F)C1 (centres undefined)               MIC        mg/L          0.2

Give the value of MIC reported for the following: NC1CCN(c2c(F)cc3c(=O)c(C(=O)O)cn(C4CC4)c3c2F)C1 (centres undefined)
0.006

Give the value of MIC reported for the following: NCC1CN(c2c(F)cc3c(=O)c(C(=O)O)cn(C4CC4)c3c2F)CC1c1ccccc1 (centres undefined)
0.013

----------
Test system: Escherichia coli
Method Description: Antibacterial activity was determined against Gram-negative Escherichia coli Vogel bacteria
Type: functional
// NB: equality with 0.2 µg/mL counts as 0 (no); only MIC strictly below is 1 (yes)

Below are worked cases with known answers.
                                   compound  discrete_label
0  NCC1CN(c2c(F)cc3c(=O)c(C(=O)O)cn(C4CC4)c3c2F)CC1c1ccccc1 (stereo not given)         1 (yes)
1  NC1(c2ccccc2)CCN(c2c(F)cc3c(=O)c(C(=O)O)cn(C4CC4)c3c2F)C1 (stereo not given)         1 (yes)
2  CCNCC1(c2ccccc2)CCN(c2c(F)cc3c(=O)c(C(=O)O)cn(C4CC4)c3c2F)C1 (stereo not given)          0 (no)

Next item in the queue.
Could you please tell me whether MIC recorded for NC1CCN(c2c(F)cc3c(=O)c(C(=O)O)cn(C4CC4)c3c2F)C1 (stereo not given) is less than 0.2 µg/mL?
1 (yes)

Measured values drawn from ChEMBL document CHEMBL1125100 for this set.
